- study.target: DNA topoisomerase 2-alpha (Homo sapiens, UniProt P11388)
- Sequence (P11388 whole entry): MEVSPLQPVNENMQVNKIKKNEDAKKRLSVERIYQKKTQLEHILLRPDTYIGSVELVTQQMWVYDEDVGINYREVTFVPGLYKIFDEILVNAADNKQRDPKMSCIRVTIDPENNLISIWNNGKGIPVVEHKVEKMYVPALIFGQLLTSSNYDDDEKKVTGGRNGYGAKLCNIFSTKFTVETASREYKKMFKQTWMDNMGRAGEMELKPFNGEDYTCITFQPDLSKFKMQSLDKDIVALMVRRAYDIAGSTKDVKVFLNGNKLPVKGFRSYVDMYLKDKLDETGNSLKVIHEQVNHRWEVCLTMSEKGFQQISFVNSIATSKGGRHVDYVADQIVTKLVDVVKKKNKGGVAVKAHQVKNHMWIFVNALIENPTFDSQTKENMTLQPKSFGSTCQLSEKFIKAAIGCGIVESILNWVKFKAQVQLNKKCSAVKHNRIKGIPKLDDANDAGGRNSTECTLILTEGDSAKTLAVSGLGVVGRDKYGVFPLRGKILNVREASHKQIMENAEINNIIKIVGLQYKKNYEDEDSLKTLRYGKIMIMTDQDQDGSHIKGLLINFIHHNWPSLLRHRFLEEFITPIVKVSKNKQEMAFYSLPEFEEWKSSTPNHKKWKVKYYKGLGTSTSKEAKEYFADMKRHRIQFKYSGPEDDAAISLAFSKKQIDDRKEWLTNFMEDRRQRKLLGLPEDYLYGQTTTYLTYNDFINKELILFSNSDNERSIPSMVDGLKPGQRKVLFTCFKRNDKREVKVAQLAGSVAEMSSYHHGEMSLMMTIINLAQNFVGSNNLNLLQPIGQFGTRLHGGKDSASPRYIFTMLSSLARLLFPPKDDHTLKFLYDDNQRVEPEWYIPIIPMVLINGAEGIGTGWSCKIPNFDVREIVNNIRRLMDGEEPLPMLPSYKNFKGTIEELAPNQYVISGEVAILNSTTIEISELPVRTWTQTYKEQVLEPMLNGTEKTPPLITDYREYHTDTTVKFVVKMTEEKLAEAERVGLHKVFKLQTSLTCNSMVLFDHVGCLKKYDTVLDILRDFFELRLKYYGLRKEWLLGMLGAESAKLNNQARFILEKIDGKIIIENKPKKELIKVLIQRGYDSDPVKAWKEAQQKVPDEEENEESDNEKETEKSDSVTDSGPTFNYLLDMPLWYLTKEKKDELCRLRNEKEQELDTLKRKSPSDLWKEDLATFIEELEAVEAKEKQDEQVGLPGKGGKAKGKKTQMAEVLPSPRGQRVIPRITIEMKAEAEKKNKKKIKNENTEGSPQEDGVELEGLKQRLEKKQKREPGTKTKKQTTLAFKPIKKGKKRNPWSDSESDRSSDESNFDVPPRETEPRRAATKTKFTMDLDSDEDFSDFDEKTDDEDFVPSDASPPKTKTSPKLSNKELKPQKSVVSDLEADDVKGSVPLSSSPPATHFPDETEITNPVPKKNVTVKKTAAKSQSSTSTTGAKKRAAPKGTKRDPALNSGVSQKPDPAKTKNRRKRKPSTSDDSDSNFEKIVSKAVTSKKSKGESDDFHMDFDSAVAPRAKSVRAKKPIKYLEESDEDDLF
- run.description: Inhibition of DNA topoisomerase 2 assessed as bacteriophage P4 DNA unknotting after 30 mins
pIC50: −log10 of the molar value.
endpoint.name: pIC50

INSERT INTO results (given_smiles, endpoint_name, observed) VALUES
  ('COc1ccc2c(c1)-c1c3c(cc4ccnc(c14)C2=O)OCO3', 'pIC50', 4.09);

----------
- Test system: Saccharomyces cerevisiae
- run.description: DNA damaging activity against rad 52 DNA repair gene deficient Saccharomyces cerevisiae mutant assessed as drug level required to produce 12 mm zone of inhibition after 48 hrs
- Format: functional
// reported Activity for each item listed
endpoint.name: Activity (µg/mL)

INSERT INTO measurements (given_smiles, value_comparator, observed) VALUES
  ('COc1c(OC)c2c3c(nccc3c1OC)C(=O)c1cc3c(cc1-2)OCO3', '=', 6.4),
  ('COc1ccc2c(c1)-c1c3c(cc4ccnc(c14)C2=O)OCO3', '=', 214),
  ('COC1=C(N)C(=O)c2nc(-c3nc(C(=O)O)c(C)c(-c4ccc(OC)c(OC)c4O)c3N)ccc2C1=O', '=', 0.4),
  ('O=C1c2ccc(O)cc2-c2c3c(cc4ccnc1c24)OCO3', '=', 295),
  ('COc1cc2c(cc1OC)-c1c(OC)c(OC)cc3ccnc(c13)C2=O', '>', 500),
  ('COc1c(OC)c2c3c(nccc3c1OC)C(=O)c1ccccc1-2', '>', 500),
  ('O=C1c2ccccc2-c2c3c(cc4ccnc1c24)OCO3', '=', 16.7),
  ('COc1cc2ccnc3c2c(c1OC)-c1ccccc1C3=O', '=', 300),
  ('CC[C@@]1(O)C(=O)OCc2c1cc1n(c2=O)Cc2cc3ccccc3nc2-1', '=', 0.6);
